# study-target: T1, BMP-9 (UniProt Q9UK05 320-429)
# T1 sequence (looked up): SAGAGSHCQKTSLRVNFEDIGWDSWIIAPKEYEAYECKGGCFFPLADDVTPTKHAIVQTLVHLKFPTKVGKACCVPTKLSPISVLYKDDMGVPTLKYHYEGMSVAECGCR
# assay-comment: cell-based or functional assay
Recorded IC50, BRE-luciferase reporter in C2C12 cells values for a group of binders are listed next.
Return type: number; implicit unit µg/mL.

Req: Given the entry ActRIIA-B7 (SEQ ID NO: 100) chimera-Fc protein (Fc fusion, Tested as chimera-Fc protein; not shown: linker (if any) and Fc domain) GAILGRSETQECLFFNANWEKDRTNQTGVEPCYGDKDKRRHCFATWKNISGSIEIVKQGCWLDDINCYDRTDCVEKKDSPEVYFCCCEGNMCNERFTHLPEMEVTQPTS , report its measured IC50, BRE-luciferase reporter in C2C12 cells.
Resp: 21

Req: Also need ActRIIA-A1 (SEQ ID NO: 104) chimera-Fc protein (Fc fusion, Tested as chimera-Fc protein; not shown: linker (if any) and Fc domain) GRGEAETRECLFFNANWEKDRTNQTGVEPCYGDKDKRRHCFATWKNISGSIEIVKQGCWLDDINCYDRTDCVEKKDSPEVYFCCCEGNMCNEKFSYFPEMEVTQPTS , thanks.
Resp: 50
